All values here come from patent US8026258B2.

// reported melting point per item

| Mol Smiles | melting point |
| --- | --- |
| NC(=O)COC(=O)N1CCC(COc2ccc3cccnc3c2)CC1 | 137 to 139 °C |
| N#Cc1ccc(OCCNC(=O)OCC(N)=O)cc1 | 204 to 206 °C |
| CNC(=O)COC(=O)N1CCC(CCOc2ccc(-c3ccc(Cl)cc3)cc2)CC1 | 104 to 106 °C |
| NC(=O)COC(=O)NCCCCOc1cccc2ccccc12 | 80 to 82 °C |
